Target: HhFPPS (Homo sapiens, UniProt P14324)
Sequence (P14324 67-419 limits assumed): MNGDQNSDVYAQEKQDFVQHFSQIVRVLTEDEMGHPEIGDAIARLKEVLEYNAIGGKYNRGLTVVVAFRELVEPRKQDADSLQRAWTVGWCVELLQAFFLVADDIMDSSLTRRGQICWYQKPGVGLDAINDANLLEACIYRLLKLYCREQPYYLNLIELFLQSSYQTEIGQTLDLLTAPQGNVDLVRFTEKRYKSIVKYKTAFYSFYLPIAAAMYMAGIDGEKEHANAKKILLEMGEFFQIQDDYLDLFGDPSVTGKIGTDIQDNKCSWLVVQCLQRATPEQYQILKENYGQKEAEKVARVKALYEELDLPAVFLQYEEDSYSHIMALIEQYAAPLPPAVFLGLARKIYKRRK
Provide the reported IC50 of each item.

Example molecules with recorded IC50:
> print(dat)
                                   molecule  property.label  recorded.result
1  O=P(O)(O)C(CNCCOc1ccccc1)P(=O)(O)O [Compound 63]            IC50          > 10 µM
2  O=P(O)(O)C(CSCCOc1ccc(Oc2ccccc2)cc1)P(=O)(O)O [Compound 48]            IC50          > 15 µM
3  O=P(O)(O)C(CSCCOc1cccc(Oc2ccccc2)c1)P(=O)(O)O [Compound 58]            IC50          > 10 µM

IC50 of O=P(O)(O)C(CNCCOc1cccc(Oc2ccccc2)c1)P(=O)(O)O [Compound 53] on HhFPPS (Homo sapiens, UniProt P14324)?
> 10 µM
